# System: SNB-19 CNS
# assaySummary: NCI tumour cell line growth inhibition, 48 h

{"columns": ["molecule", "measurementUnit", "relationSign", "TGI"],
 "data": [
  ["O=C1c2ccccc2-c2c1c1ccc3ccccc3c1n2-c1ccccc1", "µM", "=", 59.1],
  ["CC1=C(c2ccccc2)CON(c2ccccc2)C1", "µM", ">", 100],
  ["COC(=O)c1ccc(N/C=C(/C#N)c2ccsc2)cc1", "µM", "=", 29.8],
  ["C/C(=N\\NC(N)=S)C(CN1CCCCC1)C(C1=C(O)c2ccccc2OC1)c1ccccc1 (configuration not stated)", "µM", ">", 100],
  ["CCN1Cc2c(/C=C/c3ccccc3)nc3ccc(OC)cc3c2N(c2cccc(Cl)c2)C1", "µM", "=", 5.15],
  ["NC1=C(/C(N)=N/O)C(c2ccccc2)c2ccc3ccccc3c2O1 (configuration not stated)", "µM", ">", 100],
  ["COc1ccc(-n2nc(C(=O)c3ccccc3)c3nn4c(=O)cc(-c5ccccc5)nc4nc32)cc1", "µM", ">", 100],
  ["COC(=O)C1OC(SCCN)C(O)C(O)C1O (configuration not stated)", "µM", ">", 100],
  ["CCCCCCCCCCCc1cc(=O)c2c(O)cccc2o1", "µM", ">", 100],
  ["CN1CCC(n2cnc(-c3ccc(F)cc3)c2-c2ccnc(Nc3ccccc3)n2)CC1", "µM", ">", 25],
  ["CC(O)/C=C/C1OC(=O)CC1Nc1ccc(C=O)cc1 (configuration not stated)", "µM", ">", 100],
  ["NC(CCSCCF)C(=O)O (configuration not stated)", "µM", ">", 100],
  ["O=C(Cc1ccc(-c2ccc(OCCN3CCOCC3)cc2)cn1)NCc1ccccc1", "µM", ">", 100],
  ["COc1cc(S(=O)(=O)Nc2ccc(-c3csc(/N=C\\c4cccc(Oc5ccccc5)c4)n3)cc2)ccc1Cl", "µM", ">", 100],
  ["C/C=C/C(O)P(=O)(OC)OC (configuration not stated)", "µM", "=", 1.53],
  ["COc1ccc(/C=N/C2=NNC(C)(c3ccccc3O)N2C(Cc2c[nH]c3ccccc23)C(=O)O)cc1 (configuration not stated)", "µM", "=", 14.6],
  ["O=C1/C(=C\\c2cccc(Oc3ccccc3)c2)SC(c2ccccc2)N1Cc1ccccc1 (configuration not stated)", "µM", "=", 92.8],
  ["O=C(O)C(C(F)(F)F)C(F)(F)F (tested in a mixture with another compound)", "µM", ">", 100],
  ["CC(=O)OCCC/C(=C/c1cc2ccccc2c2ccccc12)[N+](=O)[O-]", "µM", "=", 3.22],
  ["CCCCCCCCCCCCCCCCCCOC(COP(=O)(O)OCC1OC(n2cc(F)c(=O)[nH]c2=O)CC1O)COP(=O)(O)OCC1OC(n2ccc(N)nc2=O)C(O)C1O (configuration not stated)", "µM", "=", 41.2],
  ["CC(C)C(=O)/C=C/c1ccc(Cl)cc1Cl", "µM", "=", 29.3],
  ["Cc1[nH]c2[nH]c(=S)nc(NC(N)=S)c2c1Cc1ccccc1", "µM", ">", 100]
]}

---

Item-by-item account of TGI
# System: SNB-75 CNS
# assaySummary: NCI tumour cell line growth inhibition, 48 h
Where a SMILES comes first, the peptide text is derived from it. [ ]: non-standard residue; d: D form. The star is where a group is joined. Hyp = O=C(O)[CH]1C[CH](O)CN1; Cbz = O=C(OCc1ccccc1)*

{"columns": ["molecule", "testedTarget", "relationSign", "TGI / µM"],
 "data": [
  ["COc1ccc2c3c1OC1C4(CCC5C(C2)N(CC2CC2)CCC351)OCCO4 (stereo not given)", "SNB-75 CNS", ">", 100],
  ["COc1ccc(-n2nnc3c(C#N)c(C)c(-c4ccccc4)n3c2=O)cc1", "SNB-75 CNS", ">", 29.2],
  ["Cc1c2ccccc2cc2cccc[n+]12", "SNB-75 CNS", "=", 83.7],
  ["CCOc1cc2cnc3c4cc(OC)c(OC)cc4ccc3c2cc1OC", "SNB-75 CNS", ">", 100],
  ["CN1CCN(c2ccc3nc(-c4ccc5nc(CCCc6ccc(N(CCCl)CCCl)cc6)[nH]c5c4)[nH]c3c2)CC1", "SNB-75 CNS", ">", 100],
  ["Fc1c(F)c(F)c(CSc2nc3ccccc3[nH]2)c(F)c1F", "SNB-75 CNS", ">", 100],
  ["COc1ccc(-c2cncn2-c2ccc(-c3nc4cc(OC)c(OC)c(OC)c4s3)cc2)cc1N", "SNB-75 CNS", ">", 100],
  ["CCC1=C(CC2NCCc3cc(OC)c(OC)cc32)CC2c3ccccc3CCN2C1 (stereo not given)", "SNB-75 CNS", "=", 87.9],
  ["CCCCCCCCCCCCCC/C(C(=O)O)=C(\\C)C(=O)O", "SNB-75 CNS", ">", 100],
  ["NC(=O)CNC(=O)C1CC(O)CN1C(=O)C1CCCN1C(=O)OCc1ccccc1 (stereo not drawn) (Cbz-Pro-[Hyp]-Gly-NH2; configuration not given here)", "SNB-75 CNS", ">", 100],
  ["COc1ncc(-c2ccc3ncnc(Nc4cccc(Cl)c4)c3c2)cc1NS(C)(=O)=O", "SNB-75 CNS", "=", 5.82],
  ["CCOC(=O)CC1C(CNC(=O)NC)OC(n2cnc3c(NC(=O)Nc4ccccc4)ncnc32)C1O[Si](C)(C)C(C)(C)C (stereo not given)", "SNB-75 CNS", ">", 100],
  ["CCN(CC)CCC(CNc1c(C)cnc2cc(Cl)ccc12)c1ccc(Cl)c(Cl)c1 (stereo not given)", "SNB-75 CNS", "=", 18.7],
  ["Fc1cccc(-c2nc(-c3c[nH]c4ncccc34)cs2)c1", "SNB-75 CNS", "=", 42.8],
  ["Clc1ccc2c(NCCNc3nc(N4CCCCC4)nc4ccccc34)ccnc2c1", "SNB-75 CNS", "=", 7.46],
  ["Cc1ccc(Nn2c(SCC(=O)Nc3nc(-c4ccccc4)cs3)nc(C)c2C)cc1", "SNB-75 CNS", ">", 100],
  ["C=CC(=O)OCCCS(=O)(=O)[O-].C=CC(=O)OCCCS(=O)(=O)[O-].NC1CCCCC1N.[Pt+4]", "SNB-75 CNS", ">", 25],
  ["C[C@@H]1C[C@@H]2C(=O)N(c3ccccc3)C(=O)[C@@H]2c2[nH]c3ccc(Br)cc3c21", "SNB-75 CNS", "=", 41.9],
  ["CCN(CC)CCOc1ccccc1-n1c(C)ccc1-c1ccccc1", "SNB-75 CNS", "=", 22.4],
  ["CN(C)c1cccc2c(S(=O)(=O)NCCCNCCN)cccc12", "SNB-75 CNS", "=", 68.6]
]}
